target: MAP1LC3A, Q9H492; experiment: median log2 fold change of GCK-ALFA target abundance (FLAG IP / Myc IP barcode read proportion) (log2 ratio); each designed protein is fused to an ALFA-tag nanobody in HEK293 cells to bring the named protein to FLAG-tagged glucokinase (GCK); Myc marks an untargeted standard; higher = target protein stabilised (more abundant); settings: target protein: 3xFLAG-MCP-GCK-ALFA reporter; HEK293 landing pad (RPLP)
The full ranking holds about 2,300 sequences; the median of “median log2 fold change of GCK-ALFA target abundance (FLAG IP / Myc IP barcode read proportion)” is about 0.095, and the lowest 2% start at about -0.47. This excerpt belongs to a sample that is enriched for the lowest values.
property_name: median log2 fold change

INSERT INTO measurements (binder, property_name, result) VALUES
  ('LC3A_free_0_2106 (protein) MTVVGEVLAITEKALTPEQLKKVKEEMEKIAKELEEEYGMKVEVTVKEVDGRTVFTLKFSKEGLSIEEAIEIVDEVADKLEEKLKELGADVTIYTSVYEE', 'median log2 fold change', -0.0524),
  ('LC3A_147_511 (protein) YEVEVDVDIITKDAEEEVIEEFKEIAEELKKKGYEVELEIEVEELENGITYIHVKITVKTETEEEAKEVANYILDKIDEIEEKLKDKILGSMISVEIIKK', 'median log2 fold change', -0.745),
  ('LC3A_147_414 (protein) TVVEIDILVKSKEAVEKIKERMKEIVKELKAKGYKVKLEIKVEEVEPGVYLVDITIEIEAETKEDAEAAANFVLDKIDEMEEELKDEILGSLISVEIEEK', 'median log2 fold change', -0.515),
  ('LC3A_45_1937 (protein) MYLATIDLIVPRELAEEALALAEEIARELEEENDGKVEVDLETLRESYEATRDEEDVLLVVKIYAETEELALDVADRLVDRLRAALGPRVAAIISVEEVP', 'median log2 fold change', -0.359),
  ('LC3A_23_622 (protein) MYKVTVEADTIATPEEAEKYIKLVKEKVEEIKEKYKDKIEEVKLEIEREELPDGTVYLHITVTIIVKDDEELAQKLKNELVDFFDKNIPNGVISYEIEKL', 'median log2 fold change', -0.561),
  ('LC3A_free_46_2383 (protein) YKAEIDIDFGAMDKETAEKIAEEIKKAAEEISKKYGVKVEVEVEIIEDEDGNYYLRVKITIEGEDKEKVEEAVNELIEKIDEIAEKANVSYIISVEFIDE', 'median log2 fold change', 0.115),
  ('LC3A_132_308 (protein) GEELAKKLIEIAKEALRLVKEDDSKEEEVLELLREAKELMEKLAKEASPELAAKTFEEVEEILIEISRLAAKKGWDEVSDEAFALAAEAAQLKSDAKKKL', 'median log2 fold change', 0.14),
  ('LC3A_3_1520 (protein) MEEIEKEIIKLLKEAGASEETIEKAKELLKLLRERGYLNAMKTLLEELKELKDAPVETIEAFVKDVLELVKTEDLSEEELSKRIKELATIAKNDAEIEEL', 'median log2 fold change', 0.547),
  ('LC3A_free_46_2410 (protein) YVAEIDVDALAETKEKAEEFAKKIEEAAKEIAKEYGIEVEIEVKISKDEDGTYFVEIEITLEAETKETLEKAVNELIDKIEEIAEELGVSIIISYEISEA', 'median log2 fold change', 0.0318),
  ('LC3A_45_1982 (protein) MWEATIDLLVPRELAEEAYAILKEAGAELVARHGDDLKVDWDALDASYEASRDEEEVYLRLNIYHPDKQVALDSAVEIVDRLEERLGRKVAAIISVKEVP', 'median log2 fold change', 0.0214),
  ('LC3A_28_1010 (protein) MSVVEETKKEAEKALEEAKKGNDAYLEIKITKDTTLEEVKEIGKIIEETAKKISEIENVKLYIVVDDDSNEEKHNIILDKLDEIEKKYPNVSSIVAYTDE', 'median log2 fold change', -0.515),
  ('LC3A_free_8_2531 (protein) NVQEMVDLALKELDKLEKIAVEKAKELGLSRTDILELELVIGSAKIDIIEASDKSVEEIYKLFKEELKEILEEAKKYGEELYKEVEKKAKEALKKMEEAK', 'median log2 fold change', -0.0124),
  ('LC3A_147_450 (protein) VLYEITVDILFKNDPELAEEVEEEIKEIAEKYGGEVEVEREVEQETPTTTLYFVRVTIKFEDEEKALEAEQEISELLDETAKKHPEKFVGAMISIEKIEE', 'median log2 fold change', -0.716),
  ('LC3A_23_605 (protein) MYKVEVIVDFIDKPEEAEKKVEELLKKVEELLKKHKDIVKDYEIKVTREALPDGTTYVEVEITIIIDGTKEEAEEIRNELESIASETLPNGVISSEVEEL', 'median log2 fold change', -0.868),
  ('LC3A_28_1052 (protein) SHIDEQIEKALKEAEEAKAKGEEALIELHIGKDANEEDVEKVLETIEKIAEITKDLPSVTIIVDVDNPNKEEVTKKIDEVGEELAKKYPNVTVIIALSEE', 'median log2 fold change', -0.553),
  ('LC3A_127_171 (protein) ELEELLEEALEVAEELSELLEEEDYDFEEIEELTRELLELAKKILELDPRAEDALETAEEMLELLEEMKEADEAEQKELKEHLLMLTEGLIIELLGLQLK', 'median log2 fold change', -0.77),
  ('LC3A_28_708 (protein) NPLEESIKKALEEAKAAAKAGESTVITIKVPGSATEEDIEKLIKALEEIAEITKDLPSTSIIIDVDGGVKQEHIDKIADAAEEIEKKYPNVTVIIALDET', 'median log2 fold change', 0.0817);
